target-entity: recombinantly expressed His-tagged protein corresponding to amino acids 575-869 of human Tyk2 (Homo sapiens)
experimental-protocol: Probe displacement assay (scintillation proximity, radiolabeled probe)
condition: 2.5 nM Tyk2 (575-869), 40 nM [3H] probe, 30 minutes at room temperature
property: EC50 (nM)

[1] CNC(=O)c1cnc(NC(=O)Cc2ccccc2)cc1Nc1ccccc1S(C)(=O)=O
[2] [2H]C([2H])([2H])NC(=O)c1cnc(NC(=O)C2CC2)cc1Nc1cccc(-c2ccn(C)n2)c1OC
[3] [2H]C([2H])([2H])NC(=O)c1cnc(NC(=O)C2CC2)cc1Nc1cccc(-c2ccn(CC(C)(C)O)n2)c1OC
[4] [2H]C([2H])([2H])NC(=O)c1cnc(NC(=O)C2CC2)cc1Nc1cccc(-c2ccnn2C)c1OC
-- ask // smallest EC50 at index 0, largest at the end Field: ranking. Enter the labels in the order requested.
-- reply 3, 2, 4, 1
(3: 3.86 nM, 2: 6.42 nM, 4: 40 nM, 1: 120 nM)

[A] CNC(=O)c1cnc(NC(=O)C2CC2)cc1Nc1ccc(F)cc1S(C)(=O)=O
[B] CNC(=O)c1cnc(NC(=O)Cc2ccccn2)cc1Nc1ccccc1S(C)(=O)=O
-- ask EC50 comparison. Which is larger, A or B ? Give the label under which the chosen entry appears.
-- reply B

---

target-entity: recombinantly expressed His-tagged protein corresponding to amino acids 575-869 of human Tyk2 (Homo sapiens)
experimental-protocol: Probe displacement assay (scintillation proximity, radiolabeled probe)
condition: 2.5 nM Tyk2 (575-869), 40 nM [3H] probe, 30 minutes at room temperature
property: EC50 (nM)

[P] CNC(=O)c1cnc(NC(=O)C2CC2)cc1Nc1cccc(-c2ccn(C)n2)c1OC
[Q] CCNC(=O)Nc1cc(Nc2ccccc2S(C)(=O)=O)c(C(=O)NC)cn1
[R] CNC(=O)c1cnc(NC(=O)C2CC2)cc1Nc1cccc(F)c1S(C)(=O)=O
[S] CNC(=O)c1cnc(NC(=O)C2CC2)cc1Nc1cccc(-c2ncn(C)n2)c1OC
-- ask // smallest EC50 at index 0, largest at the end Field: ranking. Enter the labels in the order requested.
-- reply P, S, Q, R

---

target-entity: recombinantly expressed His-tagged protein corresponding to amino acids 575-869 of human Tyk2 (Homo sapiens)
experimental-protocol: Probe displacement assay (scintillation proximity, radiolabeled probe)
condition: 2.5 nM Tyk2 (575-869), 40 nM [3H] probe, 30 minutes at room temperature
property: EC50 (nM)

compound: CNC(=O)c1cnc(NC(=O)Nc2ccccc2)cc1Nc1ccccc1S(C)(=O)=O [Example 27]
property: EC50
observed-measurement: 290
--
compound: CCCC(=O)Nc1cc(Nc2ccccc2S(C)(=O)=O)c(C(=O)NC)cn1 [Example 11]
property: EC50
observed-measurement: 240
--
compound: [2H]C([2H])([2H])NC(=O)c1cnc(NC(=O)C2CC2)cc1Nc1cccc(-c2ccn(CCC#N)n2)c1OC [Example 41]
property: EC50
observed-measurement: 2.74
--
compound: CNC(=O)c1cnc(NC(=O)C2CCC2)cc1Nc1ccccc1S(C)(=O)=O [Example 14]
property: EC50
observed-measurement: 170

[I] CNC(=O)c1cnc(NC(=O)Cc2ccc(OC)cc2)cc1Nc1ccccc1S(C)(=O)=O [Example 12]
[II] [2H]C([2H])([2H])NC(=O)c1cnc(NC(=O)C2CC2)cc1Nc1cccc(-c2ccnn2CC)c1OC [Example 38]
[III] CNC(=O)c1cnc(NC(C)=O)cc1Nc1ccc(F)c(F)c1OC [Example 24]
[IV] CNC(=O)c1cnc(NC(=O)C2CCOCC2)cc1Nc1ccccc1S(C)(=O)=O [Example 4]
-- ask Rank items: key EC50, increasing. Field: ranking. Enter the labels in the order requested.
-- reply II, I, III, IV

---

target-entity: recombinantly expressed His-tagged protein corresponding to amino acids 575-869 of human Tyk2 (Homo sapiens, UniProt P29597)
Sequence (P29597 with tags, fused parts or gaps): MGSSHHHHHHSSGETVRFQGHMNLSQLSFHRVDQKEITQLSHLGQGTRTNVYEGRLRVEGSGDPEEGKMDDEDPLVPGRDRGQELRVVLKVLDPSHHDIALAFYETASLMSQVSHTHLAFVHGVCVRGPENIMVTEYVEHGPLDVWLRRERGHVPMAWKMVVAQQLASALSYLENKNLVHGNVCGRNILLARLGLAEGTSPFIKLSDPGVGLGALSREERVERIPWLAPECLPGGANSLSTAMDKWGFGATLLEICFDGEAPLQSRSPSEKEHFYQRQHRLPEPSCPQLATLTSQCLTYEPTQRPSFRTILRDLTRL
experimental-protocol: Probe displacement assay (scintillation proximity, radiolabeled probe)
condition: 2.5 nM Tyk2 (575-869), 40 nM [3H] probe, 30 minutes at room temperature
property: EC50 (nM)

The following compounds have reported results that may help.
compound: CNC(=O)c1cnc(NC(=O)C2CC2)cc1Nc1cccc(-c2nnc(C)o2)c1OC
property: EC50
observed-measurement: 10
--
compound: CNC(=O)c1cnc(NC(=O)C2CCCc3ccccc32)cc1Nc1ccccc1S(C)(=O)=O (centres unmarked)
property: EC50
observed-measurement: 940

[1] CNC(=O)c1cnc(NC(=O)C2CC2)cc1Nc1ccccc1S(C)(=O)=O
[2] CNC(=O)c1cnc(NC(=O)COC)cc1Nc1ccc(F)c(F)c1OC
[3] CNC(=O)c1cnc(NC(=O)C2CC2)cc1Nc1ccc(F)c(F)c1OC
-- ask Rank items: key EC50, increasing. Field: ranking. Enter the labels in the order requested.
-- reply 1, 3, 2
(1: 20 nM, 3: 40 nM, 2: 1020 nM)

---

target-entity: recombinantly expressed His-tagged protein corresponding to amino acids 575-869 of human Tyk2 (Homo sapiens)
experimental-protocol: Probe displacement assay (scintillation proximity, radiolabeled probe)
condition: 2.5 nM Tyk2 (575-869), 40 nM [3H] probe, 30 minutes at room temperature
property: EC50 (nM)

compound: CNC(=O)c1cnc(NC(=O)C2CCCCC2)cc1Nc1ccccc1S(C)(=O)=O [Example 5]
observed-measurement: 800

[I] CNC(=O)c1cnc(NC(=O)C2CC2)cc1Nc1ccccc1C(C)(C)O [Example 19]
[II] CNC(=O)c1cnc(NC(=O)[C@H]2CC2(C)C)cc1Nc1ccccc1S(C)(=O)=O [Example 8]
-- ask Could you tell me which of these two has the smaller EC50 figure? First: I Second: II Give the label under which the chosen entry appears.
-- reply II

---

target-entity: recombinantly expressed His-tagged protein corresponding to amino acids 575-869 of human Tyk2 (Homo sapiens)
experimental-protocol: Probe displacement assay (scintillation proximity, radiolabeled probe)
condition: 2.5 nM Tyk2 (575-869), 40 nM [3H] probe, 30 minutes at room temperature
pEC50: −log10 of the molar value.
property: pEC50

compound: [2H]C([2H])([2H])NC(=O)c1cnc(NC(=O)C2CC2)cc1Nc1cccc(-c2ccn(CC)n2)c1OC
pEC50: 8.45
//
compound: CNC(=O)c1cnc(NC(=O)[C@@H]2CCCO2)cc1Nc1ccccc1S(C)(=O)=O
pEC50: 6.08
//
compound: [2H]C([2H])([2H])NC(=O)c1cnc(NC(=O)C2CC2)cc1Nc1cccc(-c2csc(C)n2)c1OC
pEC50: 8.25
//
compound: CNC(=O)c1cnc(NC(=O)C2CC2(F)F)cc1Nc1ccccc1S(C)(=O)=O (stereo not drawn)
pEC50: 6.85
//
compound: [2H]C([2H])([2H])NC(=O)c1cnc(NC(=O)C2CC2)cc1Nc1cccc(-c2ccn(CC(F)(F)F)n2)c1OC
pEC50: 7.70
//
compound: CNC(=O)c1cnc(NC(=O)C2CC2)cc1Nc1cc(F)ccc1S(C)(=O)=O
pEC50: 6.82

[a] CNC(=O)c1cnc(NC(=O)C2CC2)cc1Nc1cccc(-c2nnc[nH]2)c1OC
[b] CNC(=O)Nc1cc(Nc2ccccc2S(C)(=O)=O)c(C(=O)NC)cn1
[c] CNC(=O)c1cnc(NC(=O)C(C)C)cc1Nc1ccccc1S(C)(=O)=O
[d] CNC(=O)c1cnc(NC(=O)C2CC2F)cc1Nc1ccccc1S(C)(=O)=O (stereo not drawn)
[e] [2H]C([2H])([2H])NC(=O)c1cnc(NC(=O)C2CC2)cc1Nc1cccc(-c2cnn(C)c2)c1OC
-- ask Rank items: key pEC50, increasing. Field: ranking. Enter the labels in the order requested.
-- reply c, b, d, a, e
(c: 6.34, b: 6.70, d: 7.10, a: 8.26, e: 8.60)
